// provenance: ChEMBL document CHEMBL1765048

- system.under.test: D(3) dopamine receptor (Homo sapiens)
- assay.summary: Displacement of [3H]7-OH-DPAT from human dopamine D3 receptor expressed in CHO cells after 60 mins
- Format: cell-based
Below, each entry is listed with its recorded Ki.
Return type: number; implicit unit nM.

Exam item: # Ki lookup, item CCCN(CCCCNC(=O)c1ccc(-c2ccccc2)cc1)[C@H]1CCn2nccc2C1
Marked response: 0.027

Exam item: Entry CCCN(CCC)[C@@H]1CCn2nccc2C1 please
Marked response: 4300

Exam item: Now try CCCN(CCCCNC(=O)c1ccc(-c2ccccc2)cc1)[C@@H]1CCn2nccc2C1 .
Marked response: 6.3

Lab note: next compound to report on.
Exam item: Which Ki is reported for this compound? CCCN(CCC)[C@H]1CCn2nccc2C1
Marked response: 14

---

- system.under.test: D(3) dopamine receptor (Homo sapiens, UniProt P35462, V87F)
- Sequence (P35462 as listed by the source V87F): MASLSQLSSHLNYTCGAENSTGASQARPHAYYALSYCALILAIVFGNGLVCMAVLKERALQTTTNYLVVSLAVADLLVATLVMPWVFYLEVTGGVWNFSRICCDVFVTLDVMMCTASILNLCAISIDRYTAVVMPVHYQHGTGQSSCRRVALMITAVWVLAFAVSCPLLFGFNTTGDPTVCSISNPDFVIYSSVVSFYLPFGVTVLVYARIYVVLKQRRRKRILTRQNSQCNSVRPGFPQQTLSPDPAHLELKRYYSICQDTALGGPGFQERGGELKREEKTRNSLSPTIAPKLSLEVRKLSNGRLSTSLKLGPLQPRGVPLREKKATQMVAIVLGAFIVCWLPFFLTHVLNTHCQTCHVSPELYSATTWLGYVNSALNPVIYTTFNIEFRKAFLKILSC
- assay.summary: Displacement of [3H]spiperone from human dopamine D3 receptor V2.61F mutant expressed in HEK293 cells after 60 mins
- Type: cell-based
value.kind: log10 Ki (log10 of the value in nM)
Log10 applied to Ki; unit prior to transform: nM.

Sample records with log10 Ki:
Exam item: Given CCCN(CCCCNC(=O)c1ccc(-c2ccccc2)cc1)[C@@H]1CCn2nccc2C1 , state its recorded log10 Ki.
Marked response: 3.57

Exam item: Please answer likewise for COc1ccccc1N1CCN(CCCCNC(=O)c2ccc(-c3ccccc3)cc2)CC1
Marked response: 2.26

Exam item: Repeat for the following molecule: CCCN(CCC)C1Cc2ccccc2C1
Marked response: 2.54

Exam item: Same again, this time with CCCCC(=O)NCCCCN(CCC)C1Cc2ccccc2C1
Marked response: 2.88

Exam item: Param item: CCCN(CCCCNC(=O)c1ccccc1)C1Cc2ccccc2C1
Marked response: 2.40

Exam item: Also, CCCN(CCC)[C@H]1CCn2nccc2C1 please.
Marked response: 2.62

Exam item: And what about the molecule CCCN(CCCCNC(=O)c1ccc(-c2ccccc2)cc1)[C@H]1CCn2nccc2C1 ?
Marked response: 2.23

Pending molecule:
Exam item: Need log10 Ki of CCCN(CCCCNC(C)=O)C1Cc2ccccc2C1 , thanks.
Marked response: 2.52

---

- system.under.test: UniProt:P14416
- assay.summary: Displacement of [3H]spiperone from human dopamine D2short receptor expressed in CHO cells after 60 mins
- Type: cell-based
pKi: −log10 of the molar value.
Rule: criterion met for pKi not less than 7, criterion not met for anything less.

Here are 4 compounds together with their reported answers.
Exam item: Does CCCN(CCCCNC(=O)c1ccc(-c2ccccc2)cc1)C1CCn2ncc(C=O)c2C1 (stereo unspecified) have a reported pKi of at least 7?
Marked response: criterion not met

Exam item: Please do the same for CCCN(CCCCNC(=O)c1ccc(-c2ccccc2)cc1)C1Cc2cccn3ncc(c23)C1 (stereo unspecified) as well.
Marked response: criterion not met

Exam item: Try CCCN(CCC)[C@@H]1CCn2nccc2C1 next.
Marked response: criterion not met

Exam item: Query CCCN(CCCCNC(=O)c1ccc(-c2ccccc2)cc1)C1CCn2ncc(Cl)c2C1 (stereo unspecified) next
Marked response: criterion met

Moving on to another compound below.
Exam item: Kindly determine if pKi recorded for CCCN(CCC)[C@H]1CCn2nccc2C1 is above or exactly 7.
Marked response: criterion not met

---

- system.under.test: D(2) dopamine receptor (Homo sapiens, UniProt P14416)
- Sequence (P14416 whole entry): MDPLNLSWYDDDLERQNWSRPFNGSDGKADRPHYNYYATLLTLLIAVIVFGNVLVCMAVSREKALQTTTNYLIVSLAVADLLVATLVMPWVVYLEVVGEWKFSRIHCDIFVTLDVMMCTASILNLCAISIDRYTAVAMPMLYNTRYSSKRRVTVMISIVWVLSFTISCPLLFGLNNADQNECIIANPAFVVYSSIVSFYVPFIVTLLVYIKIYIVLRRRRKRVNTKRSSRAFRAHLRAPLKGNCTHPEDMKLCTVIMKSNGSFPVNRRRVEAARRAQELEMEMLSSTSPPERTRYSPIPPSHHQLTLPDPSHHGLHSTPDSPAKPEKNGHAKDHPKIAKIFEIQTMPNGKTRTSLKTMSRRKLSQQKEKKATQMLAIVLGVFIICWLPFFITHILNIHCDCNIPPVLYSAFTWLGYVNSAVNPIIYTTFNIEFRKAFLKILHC
- assay.summary: Agonist activity at human dopamine D2long receptor expressed in HEK293 cells co-expressing Galphai2 assessed as incorporation of [35S]GTPgammaS into Galphai2 after 30 mins by scintillation counting
- Type: functional, cell-based
value.kind: EC50 (nM)
Write the number in nM without appending the unit.

Exam item: State its EC50 on D(2) dopamine receptor (Homo sapiens, UniProt P14416): CCCN(CCCCNC(=O)c1ccc(-c2ccccc2)cc1)[C@H]1CCn2nccc2C1
Marked response: 370
